- System: corn
- protocol: Test B pre/postemergence corn
- Assay type: in vivo, Zea mays
- testSettings: Preemergence, Rate 250 g/ha; scale 0 to 10, 0 is no effect, 10 is complete control
metricName: Corn plant response rating
Give your answer as a number; write no unit.

Input: What value of Corn plant response rating has been recorded for this entry: Cc1ccccc1Cn1c(=O)on(C(=O)N(c2ccc(Cl)cc2)C(C)C)c1=O
Output: 0

Input: Param item = CSCCn1c(=O)on(C(=O)N(c2ccccc2)C(C)C)c1=O ; retrieve measured Corn plant response rating.
Output: 0

Input: Report Corn plant response rating for CC(C)N(C(=O)n1oc(=O)n(Cc2cnc(Cl)s2)c1=O)c1ccc(F)cc1 please.
Output: 0

Input: May I ask what Corn plant response rating has been recorded for CC(C)N(C(=O)n1oc(=O)n(C)c1=O)c1ccccc1 ?
Output: 8
